B1: HEEH_KT_rd6_3546 (parent)
chain: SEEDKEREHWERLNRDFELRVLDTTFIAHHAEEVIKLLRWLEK

# Variants of: B1
# assay.explanation: folding stability dG (cDNA display proteolysis); higher = more stable
# condition.set: PBS, room temperature
measurement.kind: folding stability dG
Number first, unit second: that is the form wanted.

Example entries and their recorded answers appear below.
H30Y = 2.05 kcal/mol
D16H = 1.93 kcal/mol

Exam item: Could you share which folding stability dG value was measured for `A28V` ?
Marked response: 1.51 kcal/mol

Exam item: Further, for `V34M` ?
Marked response: 1.2 kcal/mol

Exam item: Follow-up entry: `K5I`
Marked response: 1.17 kcal/mol
